- Test Name: chemical genetic growth profiling, strain panel (AID 1159580);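 also: tested at 20 µM; growth read once vehicle control cultures reached saturation at 30 °C; 1 = growth at the plate median or of vehicle wells; lower values mean less growth of the strain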
- Experimental Setup: S. cerevisiae deletion strains, growth OD, locus YNL248C, strain rpa49, active compounds read low
Among all 5,500 compounds or so, about 2,000 (36%) were called active. Not shown: some 18% with an inconclusive outcome. Some of the results follow.
Readout: normalized growth
The reply should be a number, written without any unit.

In: Item under review: CC[N+](C)(C)c1cccc(O)c1 . Reported normalized growth?
Out: 1.07

In: What measured normalized growth goes with CO[C@H]1CC(O[C@@H]2/C(C)=C/C[C@@H]3C[C@@H](C[C@]4(CC[C@H](C)[C@@H](C5CCCCC5)O4)O3)OC(=O)[C@@H]3C=C(C)/C(=N\O)[C@H]4OC/C(=C\C=C\[C@@H]2C)[C@]43O)O[C@@H](C)C1O (some centres undefined) ?
Out: 1.03

In: GET /values?readout=normalized growth&item= CC(C)(C)NC[C@H](O)c1ccc(O)c(CO)c1
Out: 1.01

In: May I ask what normalized growth has been recorded for C[n+]1ccccc1/C=N/O ?
Out: 0.978
